target: GST-tagged human ROCK1 catalytic domain 1-477 (Homo sapiens (Human), UniProt Q13464); assay: Inhibition of Rho-associated protein kinase isoform 1 (LANCE Ultra ULight-CREBtide FRET kinase assay); assay type: biochemical; conditions: 30 μM was the highest concentration analyzed
Sequence (Q13464 1-477): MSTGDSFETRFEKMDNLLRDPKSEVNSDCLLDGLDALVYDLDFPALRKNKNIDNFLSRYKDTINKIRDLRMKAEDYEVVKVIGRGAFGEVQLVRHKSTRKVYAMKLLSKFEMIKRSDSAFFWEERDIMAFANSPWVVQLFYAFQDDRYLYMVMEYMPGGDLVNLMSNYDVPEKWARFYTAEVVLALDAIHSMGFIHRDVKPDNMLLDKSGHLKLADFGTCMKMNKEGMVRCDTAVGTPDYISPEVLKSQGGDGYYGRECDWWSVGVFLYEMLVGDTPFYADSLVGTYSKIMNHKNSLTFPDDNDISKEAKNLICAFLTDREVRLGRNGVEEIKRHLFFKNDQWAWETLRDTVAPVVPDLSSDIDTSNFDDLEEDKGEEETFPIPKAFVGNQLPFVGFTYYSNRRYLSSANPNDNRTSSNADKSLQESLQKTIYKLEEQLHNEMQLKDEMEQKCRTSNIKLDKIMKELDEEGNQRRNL
metric: IC50

- molecule: "CC(=O)Nc1cc(CO)cc(-c2nnc(Nc3ccc4[nH]ncc4c3Cl)s2)c1 [Example 48H]"
  IC50: "< 1 µM"
- molecule: "FC(F)(F)c1nc2c(-c3nnc(Nc4ccc5[nH]ncc5c4Cl)s3)cc(Br)cn2n1 [Example 50B]"
  IC50: "1 to 15 µM"
- molecule: "CC1(C)COC(c2cccc(-c3nnc(Nc4ccc5[nH]ncc5c4Cl)s3)c2)=N1 [Example 46F]"
  IC50: "1 to 15 µM"

# Cn1cc(C(=O)Nc2cc(-c3nnc(Nc4ccc5[nH]ncc5c4)s3)ccc2C(=O)O)cn1 [Example A-5] with GST-tagged human ROCK1 catalytic domain 1-477 (Homo sapiens (Human), UniProt Q13464): IC50 is < 1 µM

====

A collection of molecules and their measured Selectivity for ROCK2 over ROCK1 (IC50 ROCK1 / IC50 ROCK2)
target: GST-tagged human ROCK2 catalytic domain 1-553 (Homo sapiens (Human)); test: Inhibition of Rho-associated protein kinase isoform 2 (LANCE Ultra ULight-CREBtide FRET kinase assay); type: biochemical; details: selectivity ROCK2 vs ROCK1

Record summary for CC(=O)Nc1cc(CN(C)C)cc(-c2nnc(Nc3ccc4[nH]ncc4c3Cl)s2)c1.O=C(O)C(F)(F)F [Example 48C] : reported Selectivity for ROCK2 over ROCK1 (IC50 ROCK1 / IC50 ROCK2) = >5

Record summary for Cc1cccc(CNC(=O)c2cccc(-c3nnc(Nc4ccc5[nH]ncc5c4Cl)s3)c2)n1 [Example 75G] : reported Selectivity for ROCK2 over ROCK1 (IC50 ROCK1 / IC50 ROCK2) = <5

Record summary for Cn1cc(C(=O)Nc2cc(C(=O)O)cc(-c3nnc(Nc4ccc5[nH]ncc5c4Cl)s3)c2)cn1 [Example 48AC] : reported Selectivity for ROCK2 over ROCK1 (IC50 ROCK1 / IC50 ROCK2) = >5

Record summary for O=C(O)Cn1cc(C(=O)Nc2cc(F)c(F)c(-c3nnc(Nc4ccc5[nH]ncc5c4)s3)c2)cn1 [Example 35AY] : reported Selectivity for ROCK2 over ROCK1 (IC50 ROCK1 / IC50 ROCK2) = >75

Record summary for O=C(Nc1cccc(-c2nnc(Nc3ccc4[nH]ncc4c3Cl)s2)c1)c1ccc(F)cc1 [Example 35AW] : reported Selectivity for ROCK2 over ROCK1 (IC50 ROCK1 / IC50 ROCK2) = >5

Record summary for NC(=O)c1cc(-c2ncco2)cc(-c2nnc(Nc3ccc4[nH]ncc4c3Cl)s2)c1 [Example 46L] : reported Selectivity for ROCK2 over ROCK1 (IC50 ROCK1 / IC50 ROCK2) = >100

Record summary for Cn1ccnc1-c1cccc(-c2nnc(Nc3ccc4[nH]ncc4c3Cl)s2)c1.O=C(O)C(F)(F)F [Example 46E] : reported Selectivity for ROCK2 over ROCK1 (IC50 ROCK1 / IC50 ROCK2) = >100

====

A collection of molecules and their measured IC50
target: GST-tagged human ROCK2 catalytic domain 1-553 (Homo sapiens (Human), UniProt O75116); test: Inhibition of Rho-associated protein kinase isoform 2 (LANCE Ultra ULight-CREBtide FRET kinase assay); assay type: biochemical; settings: 30 μM was the highest concentration analyzed
Sequence (O75116 1-553): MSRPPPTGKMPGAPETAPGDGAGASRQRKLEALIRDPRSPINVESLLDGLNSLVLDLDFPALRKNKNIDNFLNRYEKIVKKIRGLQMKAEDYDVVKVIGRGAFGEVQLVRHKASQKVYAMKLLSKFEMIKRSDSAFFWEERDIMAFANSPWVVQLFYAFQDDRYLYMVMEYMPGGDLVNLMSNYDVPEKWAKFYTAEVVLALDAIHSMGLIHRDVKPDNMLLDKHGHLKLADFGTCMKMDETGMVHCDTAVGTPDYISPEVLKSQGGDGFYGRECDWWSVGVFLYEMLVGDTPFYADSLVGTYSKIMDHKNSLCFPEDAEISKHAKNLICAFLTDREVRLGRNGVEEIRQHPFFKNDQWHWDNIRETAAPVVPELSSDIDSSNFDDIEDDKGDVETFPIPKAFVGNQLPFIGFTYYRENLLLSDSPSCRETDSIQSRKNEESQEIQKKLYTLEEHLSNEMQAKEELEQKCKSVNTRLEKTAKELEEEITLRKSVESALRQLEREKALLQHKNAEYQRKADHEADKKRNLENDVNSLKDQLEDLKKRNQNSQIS

Some molecules with recorded IC50:
- molecule: "CC(=O)Nc1cccc(-c2nnc(N(C)c3ccc4[nH]ncc4c3Cl)s2)c1 [Example 35BC]"
  target_or_system: "GST-tagged human ROCK2 catalytic domain 1-553 (Homo sapiens (Human), UniProt O75116)"
  IC50: "< 1 µM"
- molecule: "OCCN(c1ccc2[nH]ncc2c1)c1nnc(-c2cnccn2)s1"
  target_or_system: "GST-tagged human ROCK2 catalytic domain 1-553 (Homo sapiens (Human), UniProt O75116)"
  IC50: "> 30 µM"
- molecule: "Cn1cc(CC(=O)Nc2cccc(-c3nnc(Nc4ccc5[nH]ncc5c4Cl)s3)c2)cn1 [Example 35BH]"
  target_or_system: "GST-tagged human ROCK2 catalytic domain 1-553 (Homo sapiens (Human), UniProt O75116)"
  IC50: "< 1 µM"
- molecule: "CC(=O)Nc1cccc(-c2nnc(Nc3ccc4[nH]ncc4c3C(C)C)s2)c1 [Example 35I]"
  target_or_system: "GST-tagged human ROCK2 catalytic domain 1-553 (Homo sapiens (Human), UniProt O75116)"
  IC50: "1 to 15 µM"
- molecule: "O=C(O)COc1cccc(-c2nnc(Nc3ccc4[nH]ncc4c3)s2)c1 [Example A-22]"
  target_or_system: "GST-tagged human ROCK2 catalytic domain 1-553 (Homo sapiens (Human), UniProt O75116)"
  IC50: "1 to 15 µM"

Record summary for COc1cccc(C(=O)Nc2cccc(-c3nnc(Nc4ccc5[nH]ncc5c4Cl)s3)c2)c1 [Example 35BT] : reported IC50 = < 1 µM

====

Biological target: GST-tagged human ROCK1 catalytic domain 1-477 (Homo sapiens (Human))
Test: Inhibition of Rho-associated protein kinase isoform 1 (LANCE Ultra ULight-CREBtide FRET kinase assay)
Format: biochemical
Conditions: 30 μM was the highest concentration analyzed
Experimental: Exemplary compounds were tested for ability to inhibit Rho-associated protein kinase isoform 1 (ROCK1) and Rho-associated protein kinase isoform 2 (ROCK2). Assay procedures and results are described below. Protein constructs were purified from a baculovirus expression system. The peptide substrate was fluorescent LANCE® Ultra ULight-CREBtide: […] […] The flurorescence resonance energy transfer (FRET) signals were read and analyzed on an Envision™ 2103 Multilabel Reader (Perkin Elmer).
A collection of compounds and their measured IC50

Some compounds with recorded IC50:
- compound: "CS(=O)(=O)Nc1cccc(-c2nnc(Nc3ccc4[nH]ncc4c3)s2)c1"
  value: "> 30 µM"
- compound: "CC(=O)c1cc(-c2nnc(Nc3ccc4[nH]ncc4c3Cl)s2)ccn1 [Example 35CV]"
  value: "1 to 15 µM"
- compound: "O=C(Cc1ncccn1)Nc1cccc(-c2nnc(Nc3ccc4[nH]ncc4c3Cl)s2)c1 [Example 35AP]"
  value: "< 1 µM"
- compound: "Cn1cc(C(=O)Nc2cccc(-c3nnc(Nc4ccc5[nH]ncc5c4)s3)c2)cn1"
  value: "> 30 µM"
- compound: "Cn1ccc(C(=O)Nc2cccc(-c3nnc(Nc4ccc5[nH]ncc5c4)s3)c2)n1"
  value: "< 1 µM"
- compound: "Clc1c(Nc2nnc(-c3cccc(-c4ncco4)c3)s2)ccc2[nH]ncc12 [Example 46O]"
  value: "> 30 µM"

# CC(=O)Nc1cc(C(=O)NCC(O)CO)cc(-c2nnc(Nc3ccc4[nH]ncc4c3Cl)s2)c1 (centres unmarked) [Example 48W] with GST-tagged human ROCK1 catalytic domain 1-477 (Homo sapiens (Human)): IC50 is < 1 µM

# CC(=O)Nc1cc(C(=O)N2CCC(C(=O)O)CC2)cc(-c2nnc(Nc3ccc4[nH]ncc4c3Cl)s2)c1 [Example 48Q] with GST-tagged human ROCK1 catalytic domain 1-477 (Homo sapiens (Human)): IC50 is 1 to 15 µM

====

A collection of molecules and their measured Selectivity for ROCK2 over ROCK1 (IC50 ROCK1 / IC50 ROCK2)
target: GST-tagged human ROCK2 catalytic domain 1-553 (Homo sapiens (Human)); test: Inhibition of Rho-associated protein kinase isoform 2 (LANCE Ultra ULight-CREBtide FRET kinase assay); assay type: biochemical; conditions: selectivity ROCK2 vs ROCK1

- molecule: "Cc1ccc(CC(=O)Nc2cccc(-c3nnc(Nc4ccc5[nH]ncc5c4Cl)s3)c2)nc1 [Example 35AO]"
  value: ">100"
- molecule: "CS(=O)(=O)Nc1cccc(-c2nnc(Nc3ccc4[nH]ncc4c3)s2)c1"
  value: ">100"
- molecule: "Cc1cc(C(=O)Nc2cccc(-c3nnc(Nc4ccc5[nH]ncc5c4)s3)c2)[nH]n1"
  value: ">5"
- molecule: "CSc1ccc(NC(C)=O)cc1-c1nnc(Nc2ccc3[nH]ncc3c2Cl)s1 [Example 48F]"
  value: ">5"
- molecule: "CCCOC(=O)Nc1cc(-c2nnc(Nc3ccc4[nH]ncc4c3Cl)s2)ccn1.O=C(O)C(F)(F)F [Example 35F]"
  value: ">100"

# Nc1cncc(-c2nnc(Nc3ccc4[nH]ncc4c3)s2)n1 with GST-tagged human ROCK2 catalytic domain 1-553 (Homo sapiens (Human)): Selectivity for ROCK2 over ROCK1 (IC50 ROCK1 / IC50 ROCK2) is >5

# Nc1nc(-c2nnc(Nc3ccc4[nH]ncc4c3Cl)s2)c[nH]1 [Example 75W] with GST-tagged human ROCK2 catalytic domain 1-553 (Homo sapiens (Human)): Selectivity for ROCK2 over ROCK1 (IC50 ROCK1 / IC50 ROCK2) is <5

# Cc1cnn(CC(=O)Nc2cccc(-c3nnc(Nc4ccc5[nH]ncc5c4Cl)s3)c2)c1 [Example 35BI] with GST-tagged human ROCK2 catalytic domain 1-553 (Homo sapiens (Human)): Selectivity for ROCK2 over ROCK1 (IC50 ROCK1 / IC50 ROCK2) is >100

# NCc1cncc(C(=O)Nc2cccc(-c3nnc(Nc4ccc5[nH]ncc5c4)s3)c2)c1.O=C(O)C(F)(F)F [Example 35CF] with GST-tagged human ROCK2 catalytic domain 1-553 (Homo sapiens (Human)): Selectivity for ROCK2 over ROCK1 (IC50 ROCK1 / IC50 ROCK2) is >5

# O=C(Cc1cccc(C(F)(F)F)n1)Nc1cccc(-c2nnc(Nc3ccc4[nH]ncc4c3Cl)s2)c1 [Example 35AI] with GST-tagged human ROCK2 catalytic domain 1-553 (Homo sapiens (Human)): Selectivity for ROCK2 over ROCK1 (IC50 ROCK1 / IC50 ROCK2) is >5

# Cn1cc(C(=O)Nc2cc(-c3nnc(Nc4ccc5[nH]ncc5c4Cl)s3)ccc2Br)cn1 [Example 48Y] with GST-tagged human ROCK2 catalytic domain 1-553 (Homo sapiens (Human)): Selectivity for ROCK2 over ROCK1 (IC50 ROCK1 / IC50 ROCK2) is >100
